EGFP/DsRed ratio listing for selected molecules.
# assayed.system: Cellular tumor antigen p53 (Homo sapiens) (UniProt P04637)
# Sequence (P04637 whole entry, looked up): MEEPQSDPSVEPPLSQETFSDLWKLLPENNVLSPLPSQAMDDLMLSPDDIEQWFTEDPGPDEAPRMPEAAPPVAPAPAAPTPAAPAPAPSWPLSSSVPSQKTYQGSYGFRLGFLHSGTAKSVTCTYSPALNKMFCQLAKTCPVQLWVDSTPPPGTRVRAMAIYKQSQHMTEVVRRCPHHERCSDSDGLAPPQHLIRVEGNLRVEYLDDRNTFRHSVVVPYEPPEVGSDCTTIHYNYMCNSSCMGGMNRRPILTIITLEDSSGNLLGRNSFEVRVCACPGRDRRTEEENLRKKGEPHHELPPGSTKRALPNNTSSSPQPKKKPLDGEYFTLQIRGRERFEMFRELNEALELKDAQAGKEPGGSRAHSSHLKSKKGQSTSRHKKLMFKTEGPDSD
# assay.comment: kinase inhibitors altering GFP-p53 stability in HPV16-positive cells, imaging, known kinase inhibitor set, EGFP/DsRed ratio (AID 1053116);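 further: test concentration not given here; cells exposed to compounds for 24 h at 37 °C before reading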
# condition: hits give high values
Activity calls are given as the source filed them. How the calls were made is not given here.

Consider the reported EGFP/DsRed ratio for these molecules:
molecule	assayed.system	result
COc1cc(N2CCN(C(C)C)CC2)ccc1Nc1nc(Nc2cccc(F)c2C(=O)O)c2cc[nH]c2n1	Cellular tumor antigen p53 (Homo sapiens) (UniProt P04637)	0.0569 (inactive)
O=C(NC1NNC2CC(c3ccccc3)CCC21)C1CC1 (stereo not given)	Cellular tumor antigen p53 (Homo sapiens) (UniProt P04637)	0.139 (inactive)
CC(c1ccccc1)C(C(=O)Nc1ccc(I)cc1F)N1C(=O)NC(c2ccc(OCC(O)CO)cc2)C1=O (stereo not given)	Cellular tumor antigen p53 (Homo sapiens) (UniProt P04637)	0.306 (inactive)
Cn1cc(C2=C(c3c4n(c5ccccc35)CCCCC4)C(=O)NC2=O)c2ccccc21	Cellular tumor antigen p53 (Homo sapiens) (UniProt P04637)	0.223 (inactive)

Lab note: next molecule to report on.
Report EGFP/DsRed ratio for NC1=NC(=O)C(=Cc2ccc3ncccc3c2)S1 tested on Cellular tumor antigen p53 (Homo sapiens) (UniProt P04637). 0.204 (inactive)
